Listing: polymerase ribozyme fitness (log ratio) of selected variants
B1: TPR t1 (parent)
chain: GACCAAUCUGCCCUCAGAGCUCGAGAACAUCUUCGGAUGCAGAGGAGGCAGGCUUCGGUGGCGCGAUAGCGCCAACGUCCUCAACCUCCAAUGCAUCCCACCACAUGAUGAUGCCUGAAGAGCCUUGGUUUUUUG

- Variants of: B1
- Protocol notes: polymerase ribozyme fitness, log enrichment relative to wild type (log ratio); higher = more active; in vitro selection for triplet polymerase activity

{"columns": ["Sequence content", "polymerase ribozyme fitness (log ratio)"],
 "data": [
  ["GACCAAUCUGCCCUCUGAGCUCGAGAACAUCUUCGGAUGCAGAGGAGGCCGGCUUAGGUGGCGCGAUAGCGCCAACGUCCUCAACCUCCAAUGCCUCCCACCACAUGAUGAUGCCUGAAGAGCCUUGGUUUUUUG [A16U A50C C56A A95C]", -3.91],
  ["GACCAAUCUGCCCUCAGAGCUCGAGAACAUCUUCGGAUGCAAAGGAGGCAGGCUUCGGUGGCGCGAUAGCGCCAACGUCCUCAACCUCCAAUGCAUCCCACCACAUGAUGAUGCCUGAAGAGCCUUGGUUUUUUG [G42A]", -1.69],
  ["GACCAAUCUGCUCUCAGAGCUCGAGAACAUCUUCGGAUGCAGAGGAGGCAGGCUUCGGUGGCGCGAUAGUGCCAACGUCCUCAACCUCCAAUGCAUCCCACCACAUGAUGAUGCCUGAAGAGCCUUGGCUUUUUG [C12U C70U U129C]", -0.46],
  ["GACCAAUCUGCCCUCAGAGCUCGAGAACAUCUUCGGAUGCAGAGGAGGCAGGCUUCGGUGGCGCGAUAGCGCCAACGGCCUCAACCUCCAAUGCAUCCCACUACAUGAUGAUGCCUGAAGAGCCUUGGUUUUUUG [U78G C102U]", -1.93],
  ["GACCAAUCUGCCCUUAGAGCUCGAGAACAUCUUCGGAUGCAGAGGAGGCAGGCUUCGGUGACGCGAUAGCGCCAACGUCCUCAACCUCAAAUGCAUCCCACCACAUGAUGUUGCCUGAAGAGCCUUGGUUUUUUG [C15U G61A C89A A111U]", -6.53],
  ["GACCAAUCUGCCCUCAGAGCUCGAGAACAUCUUCGGAUGCAGAGCAGGCAGGCCUCGGUGGCGCGAUAGCGCAAACGUCCACAACCUCCAAUCCAUCCCACCACAUGAUGCUGCCUGAAGAGCCUUGGUUUUUUG [G45C U54C C73A U81A G93C A111C]", -4.76],
  ["GACCAAUCUGCCCUCAGAGCUCGAGAACGUCUUCGGGUGCAGAGGAGGCAGGCGUCGGUGGCGCGAUACCGCCAACGUCCUCAACCUCCAAUGCAUCCCACCACAUGAUGAUGCCUGAAGAGCCUUGGUUUUUUG [A29G A37G U54G G69C]", -7.29],
  ["GACCAAUCUGCCCUCAGAGAUCGAGAACAUCGUCGGAUGCAGAAGAGGCAGGCUUCGGUGGCGCGAUAGCGCAAACGUCCUCAACCUCCAAUGCAUCCCACCACAUGAUGAUGGCUGAAGAGCCUUGGUUUAUUG [C20A U32G G44A C73A C114G U132A]", -5.73],
  ["GACCAAUCUGCCCUCAGAGCUCGAGAACAUCUUCGGAUGCAGAGGAGGCAGGCUUCGGUGGCGCGAUAGCGCCAACGUCCUCAACCUCCAAUGCAUCCCACUACAUGAUGAUGGCUGAAGAGCGUUGGUUUUUUG [C102U C114G C124G]", -2.64],
  ["GACCAAUCUGCCCUCAGAGCUCGAGAACAUCUUCGGAUGUAGAGGAGGCAGGCUUCGGUGGCGCGAUAGCACCAACGUCCCCAACCUCCAAUGCUUCCCACCACAUGAUGAUGCCUGAAGAGCCUUGGUUUUUUG [C40U G71A U81C A95U]", -3],
  ["GACCAAUCUGCCCUCAGAGCUCGAGAACAUCCUCGGAUGCAGAGGAGGCAGGCUUCGGUGGCGCGAUAGCGCUAACGUCCUCAAUCUCCAAUGCAUCUCACCACAUGAUGAUGCCUGAAGAGCCUUGGUUUUUUG [U32C C73U C85U C98U]", -4.19],
  ["GACCAAUCUGCCCUCAGAGCUCGAGAACAUCUUCGGAUGCAGAGGAGGCAGGCUUCGGUGGCGCGAUAGCGCCAACGUCCUCAACCUCCAAUGCAUACCACCACAUGAUGAUGCCUGAAGAGCCUUGGAUUUUUG [C97A U129A]", -4.83],
  ["GACCAAUCUGGCCUCAGAGCUCGAGAACAUCUUCGGAUGCAGAGGAGGCAGGCUUCGGUGGCCCGAUAGCGCCAACGUCCUCAACCUCCAAUGCAUCCCACCACUUGAUGAUGCCUGAAGAGGCUUGGUUUUUUG [C11G G63C A105U C123G]", -2.11]
]}

Where do the numbers come from? From the RNAGym collection of RNA variant scans (doi:10.1073/pnas.2313332121).
